Experiment: Hemolytic activity in human RBC assessed as hemolysis at 256 times MIC measured after 8 hrs relative to control
Type: toxicity, cell-based, Erythrocyte
Settings: red blood cells (erythrocytes), read-out: Activity
ASSAY_METRIC: hemolysis at 8 h, 256 times MIC

Given the compound O=C(N/N=C/c1c(O)ccc2ccc(=O)oc12)c1ccncc1 , what is its reported hemolysis at 8 h, 256 times MIC? < 4%

* * *

System: Pseudomonas aeruginosa
Assay: Antibacterial activity against Pseudomonas aeruginosa ATCC 27853 assessed as reduction in bacterial growth by CLSI protocol based method
Type: functional
Values of MIC strictly less than 300 µg/mL map to Yes, and values of at least 300 µg/mL map to No.

Take the compound CC(=O)Nc1ccc(S(=O)(=O)N/N=C/c2c(O)ccc3ccc(=O)oc23)cc1 and say whether its MIC is less than 300 µg/mL. No

Take the compound O=C(N/N=C/c1c(O)ccc2ccc(=O)oc12)c1ccc([N+](=O)[O-])cc1 and say whether its MIC is less than 300 µg/mL. No

Take the compound COC(=O)N/N=C/c1c(O)ccc2ccc(=O)oc12 and say whether its MIC is less than 300 µg/mL. Yes

Take the compound O=C(N/N=C/c1c(O)ccc2ccc(=O)oc12)c1ccc(Cl)cc1 and say whether its MIC is less than 300 µg/mL. Yes

Take the compound Cc1cc(NS(=O)(=O)c2ccc(N/N=C/c3c(O)ccc4ccc(=O)oc34)cc2)no1 and say whether its MIC is less than 300 µg/mL. No

Take the compound CCn1cc(C(=O)O)c(=O)c2cc(F)c(N3CCNCC3)cc21 [NORFLOXACIN] and say whether its MIC is less than 300 µg/mL. Yes

Take the compound O=c1ccc2ccc(O)c(/C=N/NS(=O)(=O)c3cccc4c3OCC4)c2o1 and say whether its MIC is less than 300 µg/mL. No

Take the compound O=c1ccc2ccc(O)c(/C=N/Nc3ccc(S(=O)(=O)Nc4nccs4)cc3)c2o1 and say whether its MIC is less than 300 µg/mL. Yes

Take the compound N/N=C/c1c(O)ccc2ccc(=O)oc12 and say whether its MIC is less than 300 µg/mL. Yes

Take the compound O=C(N/N=C/c1c(O)ccc2ccc(=O)oc12)c1ccc(F)cc1 and say whether its MIC is less than 300 µg/mL. No

Take the compound Cc1ncc([N+](=O)[O-])n1CC(=O)N/N=C/c1c(O)ccc2ccc(=O)oc12 and say whether its MIC is less than 300 µg/mL. Yes

Take the compound O=C(N/N=C/c1c(O)ccc2ccc(=O)oc12)c1ccccc1 and say whether its MIC is less than 300 µg/mL. Yes

Take the compound N=C(N)N/N=C/c1c(O)ccc2ccc(=O)oc12 and say whether its MIC is less than 300 µg/mL. Yes

Take the compound O=c1ccc2ccc(O)c(/C=N/NS(=O)(=O)c3ccccc3)c2o1 and say whether its MIC is less than 300 µg/mL. No

Take the compound O=c1ccc2ccc(O)c(/C=N/NS(=O)(=O)Cc3ccccc3)c2o1 and say whether its MIC is less than 300 µg/mL. No

Take the compound Nc1ncc(C(=O)N/N=C/c2c(O)ccc3ccc(=O)oc23)s1 and say whether its MIC is less than 300 µg/mL. Yes

Take the compound O=C(N/N=C/c1c(O)ccc2ccc(=O)oc12)c1ccc(O)cc1 and say whether its MIC is less than 300 µg/mL. No

Take the compound O=c1ccc2ccc(O)c(/C=N/NS(=O)(=O)c3ccc(Cl)cc3)c2o1 and say whether its MIC is less than 300 µg/mL. No

Take the compound Cc1ccc(S(=O)(=O)N/N=C/c2c(O)ccc3ccc(=O)oc23)cc1 and say whether its MIC is less than 300 µg/mL. No

Take the compound Nc1ccc(C(=O)N/N=C/c2c(O)ccc3ccc(=O)oc23)cc1 and say whether its MIC is less than 300 µg/mL. No

Take the compound O=c1ccc2ccc(O)c(/C=N/NS(=O)(=O)c3cccc4ccccc34)c2o1 and say whether its MIC is less than 300 µg/mL. Yes

Take the compound O=C(N/N=C/c1c(O)ccc2ccc(=O)oc12)c1ccncc1 and say whether its MIC is less than 300 µg/mL. Yes
